Target Of Assay: UniProt P00746
Sequence (P00746 26-253): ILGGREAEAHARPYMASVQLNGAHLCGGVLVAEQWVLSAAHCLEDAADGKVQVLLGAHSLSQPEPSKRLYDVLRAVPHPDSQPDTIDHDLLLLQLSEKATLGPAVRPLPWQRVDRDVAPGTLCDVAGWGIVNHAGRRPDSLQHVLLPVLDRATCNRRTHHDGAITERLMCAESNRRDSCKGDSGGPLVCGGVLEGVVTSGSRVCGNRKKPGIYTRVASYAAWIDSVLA
Measure: IC50

Enquiry: Form field: reported IC50 of CC(=O)c1cn(CC(=O)N2C[C@H](F)C[C@H]2C(=O)Nc2cccc(Br)c2)c2ccc(Oc3ncc(Br)cn3)cc12
Return: < 1 µM
